# SYSTEM_NAME: ALS (acetolactate synthase) (Amaranthus hybridus, UniProt A0A346FHL9)
# Construct: native, crude seedling leaf extract supernatant (15,000 g), not purified
# Sequence (A0A346FHL9 81-669 limits assumed): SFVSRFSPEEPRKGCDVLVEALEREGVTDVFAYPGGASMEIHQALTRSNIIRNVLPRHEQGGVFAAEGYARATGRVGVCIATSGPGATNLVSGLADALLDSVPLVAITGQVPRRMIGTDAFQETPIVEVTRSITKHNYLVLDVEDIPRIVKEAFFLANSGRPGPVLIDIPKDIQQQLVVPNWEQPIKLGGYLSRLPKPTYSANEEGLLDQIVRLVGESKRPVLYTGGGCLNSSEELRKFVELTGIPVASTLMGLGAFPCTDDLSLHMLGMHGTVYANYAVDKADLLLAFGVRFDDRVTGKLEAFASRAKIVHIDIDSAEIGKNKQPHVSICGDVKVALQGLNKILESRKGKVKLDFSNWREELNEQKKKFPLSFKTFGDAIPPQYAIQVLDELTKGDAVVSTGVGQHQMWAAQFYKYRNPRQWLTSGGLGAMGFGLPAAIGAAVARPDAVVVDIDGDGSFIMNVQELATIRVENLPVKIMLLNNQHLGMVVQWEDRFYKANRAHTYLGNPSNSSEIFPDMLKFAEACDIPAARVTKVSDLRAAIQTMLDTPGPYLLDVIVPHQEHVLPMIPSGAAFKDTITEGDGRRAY
# ASSAY_NOTES: acetoin colorimetric (creatine/naphthol, […] nm), crude leaf extract
# Format: biochemical
# ASSAY_CONDITIONS: read-out: I50 (μM) ± SE
Consider the cut-off 50 µM. If the recorded IC50 is strictly smaller, the label is fulfilled; if not, the label is not fulfilled.

Completed entries (count: 4):
COc1cc(OC)nc(Oc2cccc(Oc3nc(OC)cc(OC)n3)c2C(=O)O)n1 [byspiribac] : fulfilled
COC(=O)c1ccccc1S(=O)(=O)NC(=O)N(C)c1nc(C)nc(OC)n1 [tribenuron-methyl] : fulfilled
COc1ncc(F)c2nc(S(=O)(=O)Nc3c(F)cccc3F)nn12 [florasulam] : fulfilled
COCc1cnc(C2=NC(C)(C(C)C)C(=O)N2)c(C(=O)O)c1 (centres unmarked) [imazamox] : not fulfilled

Ask: Is it true that IC50 reported for COc1nn(C(=O)NS(=O)(=O)c2ccccc2OC(F)(F)F)c(=O)n1C [flucarbazone] is less than 50 µM?
Reply: fulfilled
